Source of measurements: paper PMC6100568

Target: β-1,4GalT (Bos taurus)
Sequence (P08037 78-402 limits assumed): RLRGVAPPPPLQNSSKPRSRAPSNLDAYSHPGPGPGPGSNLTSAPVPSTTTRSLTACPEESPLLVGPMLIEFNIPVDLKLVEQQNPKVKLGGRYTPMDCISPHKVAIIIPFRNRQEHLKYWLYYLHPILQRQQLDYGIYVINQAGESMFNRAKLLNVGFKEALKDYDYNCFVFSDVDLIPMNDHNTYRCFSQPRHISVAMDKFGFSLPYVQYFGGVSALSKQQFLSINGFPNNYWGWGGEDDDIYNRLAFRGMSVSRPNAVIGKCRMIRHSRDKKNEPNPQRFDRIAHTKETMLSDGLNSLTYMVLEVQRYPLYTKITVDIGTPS
Result type: pIC50
// scale note: pIC50 = -log10(conc_M); give the bare number

In plain terms, O=C(Nc1ccc(S[C@@H]2O[C@H](CO)[C@@H](O)[C@H](O)[C@H]2O)cc1)[C@H]1O[C@@H](n2ccc(=O)[nH]c2=O)[C@H](O)[C@@H]1O has a documented pIC50 of 3.48
